TARGET_ENTITY: UniProt P00760
Sequence (P00760 whole entry): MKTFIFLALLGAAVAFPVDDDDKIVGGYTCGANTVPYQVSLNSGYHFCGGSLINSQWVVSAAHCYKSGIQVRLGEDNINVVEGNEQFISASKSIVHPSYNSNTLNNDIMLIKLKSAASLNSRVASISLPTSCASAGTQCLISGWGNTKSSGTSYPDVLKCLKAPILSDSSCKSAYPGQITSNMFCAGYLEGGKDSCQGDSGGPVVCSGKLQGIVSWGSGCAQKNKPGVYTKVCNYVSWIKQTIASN
pKi: −log10 of the molar value.
METRIC: pKi

(a) N=C(N)c1cccc(C(=O)N[C@@H](C(=O)OCCC2CCN(C(=N)N)CC2)c2ccccc2)c1
(b) N=C(N)c1cccc(C(=O)N[C@@H](C(=O)NCC2CCC(CN)CC2)c2ccccc2)c1 (stereo partly specified)
(c) CC(=N)N1CCC(Oc2ccc(N(Cc3ccc4ccc(C(=N)N)cc4c3)S(=O)(=O)CC(=O)O)cc2)CC1
(d) N=C(N)c1cccc(C(=O)NCC(=O)NCC2CCC(CN)CC2)c1 (stereo unspecified)
(e) N=C(N)c1cccc(C(=O)N[C@@H](C(=O)N2CCC(C(=O)c3ccccc3)CC2)c2ccccc2)c1
Ranking by pKi (descending) is requested for the entries above. Response format: the labels, sorted as the prompt asks.
c, e, a, b, d
(c: 6.80, e: 6.01, a: 5.80, b: 5.13, d: 4.85)
